Tested on: NCI-H23 lung
Assay Text: NCI-60 one-dose screen, 48 h (100 = growth as untreated, 0 = no growth, -100 = all killed)
Run Parameters: 10 µM unless noted
About 83,000 compounds went through this panel and 20% of them were active in at least one assay; those are over-represented in the sample as a whole.
Entries and their growth
Give the number; % is assumed, so skip it.

Input line: Requested read-out growth, target or system NCI-H23 lung, entry CC(C)(C)CC1(C)NC(=O)NC1=O (stereo not drawn)
Output line: 103

Input line: Which measured growth belongs to O=C(O)CC1=CCCCC1 , tested on NCI-H23 lung?
Output line: 98.9

Input line: Can you look up growth on NCI-H23 lung for C=C1C(=O)C2CCC1C2 (stereo not drawn) ?
Output line: 107

Others:
Input line: Reported growth for NCI-H23 lung, given CC1(C)C2CCC1(C)C1(C2)OCCS1 (stereo not drawn) ?
Output line: 95.6

Input line: Record lookup: for NCI-H23 lung, what growth belongs to O=C(O)c1ccc([N+](=O)[O-])cc1S(=O)(=O)O ?
Output line: 104

---

Tested on: UACC-62 melanoma
Assay Text: NCI-60 one-dose screen, 48 h (100 = growth as untreated, 0 = no growth, -100 = all killed)
Run Parameters: 10 µM unless noted
About 83,000 compounds went through this panel and 20% of them were active in at least one assay; those are over-represented in the sample as a whole.
Items are presented alongside their recorded growth.
Please give a number only; it is taken to be in %.

As a guide, the following entries are already answered.
Input line: Reported growth for CC(=O)NNC(=S)N/C=C/c1c(C)ccc([N+](=O)[O-])c1[N+](=O)[O-] : what is it?
Output line: 98.5

Input line: Can you share its growth? I mean this compound: Nc1nc2nnc(-c3ccccc3)c(-c3ccccc3)n2n1
Output line: 87.8

Input line: growth for CCN(CC)CCOC(=O)Nc1c(C(C)C)cccc1C(C)C ?
Output line: 93.3

Input line: Which growth reading was recorded for the compound CCCCCCCCCCCCSC1=C(Cl)C(=O)C(OC)=C(OC)C1=O ?
Output line: 45.4

Input line: Fill in: growth of COc1ccc(C(=O)/C(=N/Nc2ccccc2)c2ccc(OC)cc2)cc1 is ___
Output line: 79.2

***
Input line: Would you kindly share the measured growth for CCC(C)c1c(N)n(S(=O)(=O)c2ccc(C)cc2)oc1=O (stereo unspecified) ?
Output line: 101

---

System: HT29 colon
Assay Text: NCI-60 one-dose screen, 48 h (100 = growth as untreated, 0 = no growth, -100 = all killed)
Run Parameters: 10 µM unless noted
About 83,000 compounds went through this panel and 20% of them were active in at least one assay; those are over-represented in the sample as a whole. Activity calls are given as the source filed them. How the source made its calls: active means growth percent below 10; inactive means the rest.
Assay Readout: growth

Input line: Reported growth for Ic1cccs1 : what is it?
Output line: 94.2% (inactive)

Input line: Fill in: growth of C=CCc1cc(OC)c(O)c(OC)c1 is ___
Output line: 99.7% (inactive)

New cases:
Input line: Which measured growth value corresponds to O=C(O)CSCC(=O)Nc1cc(C(F)(F)F)ccc1Cl ?
Output line: 104% (inactive)

Input line: What does the data say about its growth? Entry: O=CNCCc1ccccc1
Output line: 98.3% (inactive)

Input line: Quick one: growth of C=CC(=O)OC1CCC(C(C)(C)CC)CC1 (stereo not drawn) ?
Output line: 112% (inactive)

---

System: SNB-75 CNS
Assay Text: NCI-60 one-dose screen, 48 h (100 = growth as untreated, 0 = no growth, -100 = all killed)
Run Parameters: 10 µM unless noted
Procedure: Growth inhibition of the SNB-75 human tumor cell line is measured as a screen for anti-cancer activity. Cells are grown in 96 well plates and exposed to the test compound for 48 hours. Compounds are tested at a single concentration, which is 10^-5 M for most compounds. The reported endpoint is percent growth (GI% or GIPRCNT), where numbers from 0 - 100% represent growth inhibition, and numbers from -100% - 0 represent cell death. For example, a value of 40 represents 60% growth inhibition. […]
Compounds without any hit were thinned out: in the full panel of roughly 83,000, 20% have a hit. Activity calls are given as the source filed them. Rule for the calls: active = growth percent below 10; inactive = the rest.
Recorded growth, one value per entry.

Input line: So what's the measured growth for this one? Clc1ccc(/C=C/c2ccccn2)cc1
Output line: 72.5% (inactive)

Turning now to a further record.
Input line: Reported growth, molecule C=CC1=NC(C)(C)CC(C)O1 (centres undefined) : ____
Output line: 72% (inactive)

---

Tested on: HOP-62 NSCLC
Assay Text: NCI-60 one-dose screen, 48 h
Run Parameters: 10 µM unless noted
Compounds without any hit were thinned out: in the full panel of roughly 83,000, 20% have a hit. The source made the active and inactive calls. The calls were made as follows: active = growth percent below 10; inactive = the rest.
Write down the outcome that applies. Available outcomes: true (1) (active), false (0) (inactive)

Check out these entries, answers already filled in.
Input line: Hi, sorry to bother you, what did the test record for CCOc1ccc(C(=O)NCC(C)C)cc1 ?
Output line: false (0)

Input line: Called result for CCOC(=O)C(COS(C)(=O)=O)(COS(C)(=O)=O)C(=O)OCC
Output line: false (0)

Input line: Which outcome was assigned to CCCC1OC(c2ccco2)OCC1CC (stereo not drawn) in this test?
Output line: false (0)

Input line: Recorded call for CC(=O)C1C(=O)C(=O)N(c2cccc([N+](=O)[O-])c2)C1=O (stereo not drawn) ?
Output line: false (0)

Input line: Give the logged outcome of this assay for the following compound: O=Cc1c(O)c2ccccc2[nH]c1=O
Output line: false (0)

Input line: Which outcome was entered for the compound O=Cc1ccc(Cl)c(Cl)c1 in this test?
Output line: false (0)

Input line: # fetch the recorded call for O=C(c1ccccc1O)N1CCCC1 here
Output line: false (0)

Input line: Can you look up the reported call for CSc1cnc2ccccc2n1 for me?
Output line: false (0)

***
Input line: How did this test come out for OCCc1ccc(Cl)cc1 ?
Output line: false (0)

Input line: Per the records of this test, what outcome belongs to O=C(O)CCCCCNC(=O)OCc1ccccc1 ?
Output line: false (0)

Input line: // outcome(item) with item = c1ccc(-c2ccc3ccccc3c2)cc1
Output line: false (0)

Input line: # outcome recorded in this test, key = CCC(C)C1CCC(O)CC1 (stereo not drawn)
Output line: false (0)

Input line: Answer briefly: the call reported for CC1CCC(C(C)(C)[N+](C)(C)C)CC1 (stereo not drawn) in this assay.
Output line: false (0)

Input line: Would you mind telling me which call this test gave COc1ccc2c(Cl)cc(NC(=O)Nc3c(C)cccc3C)nc2c1 ?
Output line: true (1)

Input line: Tell me the recorded outcome of this test for CC1(C)CCC(C)(C)NC(=S)N1 .
Output line: false (0)

Input line: What is the recorded call for this compound in the test? OC(CBr)CCBr (stereo not drawn)
Output line: false (0)

Input line: Given CCN(Cc1ccc(Cl)c(Cl)c1)c1ccc2nc(N)nc(N)c2c1C , state the outcome it received in this test.
Output line: true (1)

Input line: Per the assay record, what outcome was assigned to O=C1NCC2CCCC1C2 (stereo not drawn) ?
Output line: false (0)

Input line: Which outcome did this test record for the compound Nc1ccn(C2OC(CO)C(O)C2F)c(=O)n1 (stereo not drawn) ?
Output line: false (0)

Input line: State the result this test recorded for C/C(Cc1ccccc1)=N\O .
Output line: false (0)

Input line: Each compound tested received a call. Report the one for C/C(=N\Nc1ccc([N+](=O)[O-])cc1[N+](=O)[O-])c1ccc(Br)cc1 .
Output line: false (0)

Input line: # fetch the recorded call for CSCC[C@@H]1C(=O)N(C)[C@H](C(C)(C)C)N1C(=O)c1ccccc1 here
Output line: false (0)

Input line: Assay outcome for CCOC(=O)CNC(=O)Sc1ccc(C(C)(C)C)cc1 : what was it?
Output line: false (0)

Input line: Per the records of this test, what outcome belongs to COc1ccc2c(c1)Nc1ccccc1S2 ?
Output line: false (0)

---

Test system: T-47D breast
Assay Text: NCI-60 one-dose screen, 48 h (100 = growth as untreated, 0 = no growth, -100 = all killed)
Run Parameters: 10 µM unless noted
The panel holds about 83,000 compounds, 20% with a hit somewhere; the sample as a whole holds those more often.
Use 90% as the dividing line for growth, with the line itself on the Criterion met side and lower values as Criterion not met.

Take a look at these entries with their results.
Input line: Is it the case that C1Cc2onc(-c3noc4c3CCC4)c2C1 has growth reaching or exceeding 90%?
Output line: Criterion met

Input line: Is the recorded value of growth equal to or greater than 90% for this compound? Cc1cc(Cc2ccccc2)c(O)c(Cc2ccccc2)c1
Output line: Criterion not met

Input line: Check this compound for growth at or above 90%: CC(=O)Nc1ccc(O)c(C)c1
Output line: Criterion met

Input line: Please tell me: is the compound C=CCNC(=S)N/C=C(/C(=O)c1ccccc1)c1ccccc1 at or over 90% in terms of growth?
Output line: Criterion met

Input line: # bool: growth of NNC(=O)c1ccccc1N >= 90%
Output line: Criterion met

New cases:
Input line: Entry Cn1c(=O)[nH]c2ccccc2c1=O : is its growth no less than 90%?
Output line: Criterion met

Input line: Please indicate if the recorded growth for N#C/C(=C\NC(=S)N=Nc1c(O)[nH]c2ccccc12)c1nc2ccccc2s1 meets or exceeds 90%.
Output line: Criterion not met

Input line: Kindly determine if growth recorded for CC(CO)(CO)C(=O)O is above or exactly 90%.
Output line: Criterion met

Input line: Given NC(=S)N/N=C/c1ccc(Cl)cc1 , state whether its growth is at least 90%.
Output line: Criterion not met

Input line: Determine whether this compound has growth no lower than 90%: Cc1c(-c2ccc(C3CCCCC3)cc2)nc2ccc(F)cc2c1C(=O)O
Output line: Criterion not met
